The values you see were collected from paper PMC11249646.

experimental target: CIB1 and αIIb interaction (CIB1-GST : F-αIIb peptide) (Homo sapiens, UniProt Q99828)
Construct: made in house; host or cells: BL-21 plus RIL cells (E. coli)
assay details: FP assay, 1536-well qHTS format (primary and confirmatory screen)
Format: binding
condition description: confirmatory screen; negative = inhibition
CONFIRMATORY SCREEN Efficacy (%) for assorted molecules
Write the number in % without appending the unit.

Here are 2 molecules together with their reported answers.
[[record]]
molecule = "O=C(O)C(F)(F)F.O=c1c2ccccc2nc2sc(NS(=O)(=O)c3ccc4c(c3)CCC4)nn12 [NCGC00187579-01]"
experimental_target = "CIB1 and αIIb interaction (CIB1-GST : F-αIIb peptide) (Homo sapiens, UniProt Q99828)"
unit_name = "%"
measured_value = -35

[[record]]
molecule = "Oc1c(Cl)cc(Cl)c(Cl)c1Cc1c(O)c(Cl)cc(Cl)c1Cl [NCGC00091195-08]"
experimental_target = "CIB1 and αIIb interaction (CIB1-GST : F-αIIb peptide) (Homo sapiens, UniProt Q99828)"
unit_name = "%"
measured_value = -38


INPUT: Fetch value of CONFIRMATORY SCREEN Efficacy (%) on CIB1 and αIIb interaction (CIB1-GST : F-αIIb peptide) (Homo sapiens, UniProt Q99828) for O=C(CN(c1cccc(Br)c1)S(=O)(=O)c1ccccc1)NN=CC1=CC(=[N+]([O-])O)C=CC1=O.O=C(O)C(F)(F)F [NCGC00248455-01] .
OUTPUT: -91

INPUT: Fetch value of CONFIRMATORY SCREEN Efficacy (%) on CIB1 and αIIb interaction (CIB1-GST : F-αIIb peptide) (Homo sapiens, UniProt Q99828) for COc1ccc(CNC(=O)c2nc(S(=O)(=O)Cc3ccccc3)ncc2Cl)cc1.O=C(O)C(F)(F)F [NCGC00117170-03] .
OUTPUT: -29

====

experimental target: CIB1 and αIIb interaction (CIB1-GST : F-αIIb peptide) (Homo sapiens)
Construct: made in house; host or cells: BL-21 plus RIL cells (E. coli)
Sequence (Q99828 1-191): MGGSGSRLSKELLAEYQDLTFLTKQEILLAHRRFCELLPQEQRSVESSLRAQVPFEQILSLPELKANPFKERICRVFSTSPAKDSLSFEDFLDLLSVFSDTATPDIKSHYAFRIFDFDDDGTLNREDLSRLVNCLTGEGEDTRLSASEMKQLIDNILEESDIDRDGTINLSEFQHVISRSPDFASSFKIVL
assay details: FP assay, 1536-well qHTS format (primary and confirmatory screen)
Format: binding
condition description: qHTS FP screen hits, Table S2; negative = inhibition
Criterion: Efficacy (%) meeting or surpassing -30%. Met: Met. Not met: Not met.

Example entries begin here.
[[record]]
molecule = "COc1cc(Nc2c(C#N)cnc3cc(OCCCN4CCN(C)CC4)c(OC)cc23)c(Cl)cc1Cl"
experimental_target = "CIB1 and αIIb interaction (CIB1-GST : F-αIIb peptide) (Homo sapiens)"
assigned_label = "Not met"

[[record]]
molecule = "COc1ccccc1S(=O)(=O)Nc1cnccc1C(=O)Nc1nc(-c2ccccc2)cs1.O=C(O)C(F)(F)F"
experimental_target = "CIB1 and αIIb interaction (CIB1-GST : F-αIIb peptide) (Homo sapiens)"
assigned_label = "Not met"

[[record]]
molecule = "Cc1cc(C(C#N)c2ccc(Cl)cc2)c(Cl)cc1NC(=O)c1cc(I)cc(I)c1O (stereo not drawn)"
experimental_target = "CIB1 and αIIb interaction (CIB1-GST : F-αIIb peptide) (Homo sapiens)"
assigned_label = "Not met"

[[record]]
molecule = "O=c1nc(-c2ccccn2)sc2ccccc12"
experimental_target = "CIB1 and αIIb interaction (CIB1-GST : F-αIIb peptide) (Homo sapiens)"
assigned_label = "Not met"

[[record]]
molecule = "CN1CCc2ccc3c4c2[C@]1(C)Cc1cccc(c1-4)OCO3"
experimental_target = "CIB1 and αIIb interaction (CIB1-GST : F-αIIb peptide) (Homo sapiens)"
assigned_label = "Not met"


INPUT: # bool: Efficacy (%) of `CCc1nnc(NS(=O)(=O)c2ccc(NC(=S)NC(=O)/C=C/c3ccc(F)cc3)cc2)s1` >= -30%
OUTPUT: Met

INPUT: # bool: Efficacy (%) of `CS(=O)(=O)c1ccc(C(=O)OCC(=O)N2CCC(Cc3ccccc3)CC2)cc1[N+](=O)[O-]` >= -30%
OUTPUT: Met

====

IC50 for assorted compounds
experimental target: CIB1 and αIIb interaction (CIB1-GST : F-αIIb peptide) (Homo sapiens)
Construct: made in house; host or cells: BL-21 plus RIL cells (E. coli)
Sequence (Q99828 1-191): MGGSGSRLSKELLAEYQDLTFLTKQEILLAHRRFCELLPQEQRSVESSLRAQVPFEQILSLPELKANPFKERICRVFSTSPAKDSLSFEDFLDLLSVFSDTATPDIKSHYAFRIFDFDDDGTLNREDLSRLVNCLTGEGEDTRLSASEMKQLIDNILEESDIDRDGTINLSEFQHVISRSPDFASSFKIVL
assay details: FP assay, 1536-well qHTS format (primary and confirmatory screen)
Type: binding
condition description: confirmatory screen; read-out: CONFIRMATORY SCREEN IC50
Write the number in µM without appending the unit.

Here are 4 compounds together with their reported answers.
[[record]]
compound = "CCCCCCCCOc1ccccc1C(=O)Nc1ccc(C(=O)OCC[N+](C)(CC)CC)cc1.[Br-]"
readout_label = "IC50"
unit_name = "µM"
measured_value = 39.8

[[record]]
compound = "Cc1cc(SCc2sc(-c3ccc(Cl)c(Cl)c3)nc2C)ccc1OCc1nnn[nH]1.O=C(O)C(F)(F)F"
readout_label = "IC50"
unit_name = "µM"
measured_value = 15.8

[[record]]
compound = "Cc1ccc(-c2cc(-c3nn(-c4nc(C(=O)O)cs4)c(CC4CC4)c3Cc3ccc(S(N)(=O)=O)c(F)c3)ccc2F)s1.Cl"
readout_label = "IC50"
unit_name = "µM"
measured_value = 20

[[record]]
compound = "C=CCNc1oc(-c2ccc(-c3ccccc3)cc2)nc1C#N.O=C(O)C(F)(F)F"
readout_label = "IC50"
unit_name = "µM"
measured_value = 17.8


INPUT: Could you please provide reported IC50 for `Cc1ccc(S(=O)(=O)Nc2cnccc2C(=O)Nc2nc(-c3ccc(Cl)cc3)cs2)cc1.O=C(O)C(F)(F)F` ? Thanks!
OUTPUT: 28.2

INPUT: Could you please provide reported IC50 for `Cl.NC(CO)(CO)CCc1ccc(Sc2cccc(OCc3ccccc3)c2)cc1Cl` ? Thanks!
OUTPUT: 50.1

INPUT: Could you please provide reported IC50 for `COc1cc(/C=C2/N=C(c3ccccc3)OC2=O)c(F)cc1OCc1ccccc1` ? Thanks!
OUTPUT: 44.7

INPUT: Could you please provide reported IC50 for `O=C(c1cccs1)c1no[n+]([O-])c1C(=O)c1cccs1` ? Thanks!
OUTPUT: 5.6

INPUT: Could you please provide reported IC50 for `O=C(Cc1ccc(Cl)c(Cl)c1)Nc1ccc(S(=O)(=O)Nc2nnc(-c3ccccn3)s2)cc1.O=C(O)C(F)(F)F` ? Thanks!
OUTPUT: 35.5

INPUT: Could you please provide reported IC50 for `Oc1c(Cl)cc(Cl)c(Cl)c1Cc1c(O)c(Cl)cc(Cl)c1Cl` ? Thanks!
OUTPUT: 7.1

INPUT: Could you please provide reported IC50 for `CCCCCc1c2c(cc(O)c1C(=O)O)OC(=O)c1c(cc(OC)cc1C(=O)CCCC)O2.O=C(O)C(F)(F)F` ? Thanks!
OUTPUT: 11.2

INPUT: Could you please provide reported IC50 for `N[C@@H](Cc1ccc(Oc2cc(I)c(O)c(I)c2)c(I)c1)C(=O)O` ? Thanks!
OUTPUT: 15.8

INPUT: Could you please provide reported IC50 for `Cc1ccc(S(=O)(=O)Nc2cnccc2C(=O)Nc2nc3ccccc3s2)cc1.O=C(O)C(F)(F)F` ? Thanks!
OUTPUT: 10

INPUT: Could you please provide reported IC50 for CCC(OC(=O)c1ccc(S(C)(=O)=O)c([N+](=O)[O-])c1)C(=O)NC1C2CC3CC(C2)CC1C3 (stereo not drawn) ? Thanks!
OUTPUT: 2.5

INPUT: Could you please provide reported IC50 for `Cc1ccc(C)n1-c1cccc(C(=O)O)c1.O=C(O)C(F)(F)F` ? Thanks!
OUTPUT: 8.9

====

experimental target: CIB1 and αIIb interaction (CIB1-GST : F-αIIb peptide) (Homo sapiens)
Construct: made in house; host or cells: BL-21 plus RIL cells (E. coli)
assay details: FP assay, 1536-well qHTS format (primary and confirmatory screen)
Assay type: binding
condition description: qHTS FP screen hits, Table S2; negative = inhibition
Criterion: Efficacy (%) meeting or surpassing -40%. Met: 1 (yes). Not met: 0 (no).

Example entries begin here.
[[record]]
molecule = "Cc1ccsc1C1N=C(Nc2nc3ccccc3o2)NC2=C1C(=O)CCC2.O=C(O)C(F)(F)F (stereo not shown) [NCGC00189283-01]"
assigned_label = "1 (yes)"

[[record]]
molecule = "CCc1ccc(/C=C2/SC(=S)NC2=O)cc1 [NCGC00185994-01]"
assigned_label = "0 (no)"

[[record]]
molecule = "FC(F)(F)c1cccc(N2CCN(C(=S)Nc3nccc4cccnc34)CC2)c1.O=C(O)C(F)(F)F [NCGC00244201-01]"
assigned_label = "0 (no)"

[[record]]
molecule = "Br.CCCCCCCCCCCCCCCC[N+](C)(C)C.[Br-] [NCGC00164283-07]"
assigned_label = "0 (no)"

[[record]]
molecule = "CC1(C)C=CN2C(=O)C3=CCCN3C(=O)[C@@H]2C[C@@]12Nc1ccccc1C2=O [NCGC00380729-01]"
assigned_label = "0 (no)"


INPUT: # bool: Efficacy (%) of O=C(O)C(F)(F)F.O=C(O)c1ccc(-c2ccc3ncnc(NCc4nccs4)c3c2)o1 [NCGC00229620-01] >= -40%
OUTPUT: 1 (yes)

INPUT: # bool: Efficacy (%) of Cc1ccc(-c2csc(NC(=O)c3ccncc3NS(=O)(=O)c3ccc(C)cc3)n2)cc1.O=C(O)C(F)(F)F [NCGC00319008-01] >= -40%
OUTPUT: 0 (no)

INPUT: # bool: Efficacy (%) of Oc1ccc2c(-c3c(-c4ccccn4)nn4c3CCC4)ccnc2c1 [NCGC00408881-01] >= -40%
OUTPUT: 1 (yes)

INPUT: # bool: Efficacy (%) of O=C1c2cccc(O)c2C(=O)c2c(O)cc(CO)cc21 [NCGC00163510-03] >= -40%
OUTPUT: 1 (yes)

INPUT: # bool: Efficacy (%) of O=C(Cc1ccc(Cl)c(Cl)c1)Nc1ccc(S(=O)(=O)Nc2cnccn2)cc1.O=C(O)C(F)(F)F [NCGC00248365-02] >= -40%
OUTPUT: 1 (yes)

INPUT: # bool: Efficacy (%) of CCC(=O)NC(c1cccs1)c1cc([N+](=O)[O-])c2cccnc2c1O (stereo not shown) [NCGC00182956-10] >= -40%
OUTPUT: 0 (no)

INPUT: # bool: Efficacy (%) of Cn1sc(=O)n(Cc2ccccc2)c1=O [NCGC00165913-03] >= -40%
OUTPUT: 0 (no)

INPUT: # bool: Efficacy (%) of O=C(O)C(F)(F)F.Oc1cccc2cc(C3CC3)cnc12 [NCGC00188747-01] >= -40%
OUTPUT: 1 (yes)
